Test system: Wild type
Assay: S. aureus survival, RN4220 and DeltatarO strains – OD600, teichoic acid synthesis inhibitors, primary screen (AID 463173)
Settings: S. aureus RN4220 wild type/DeltatarO growth, OD600, 18 h, hits give low values, screened at 18.75 µg/mL (by protocol)
Out of some 52,000 compounds screened, about 1,700 (3.3%) were called active. What follows is part of a selection rich in actives, with near analogues and random picks from the rest.
Hi! Could you tag entries with survival below 70% as condition met, and those at or above as condition not met? Much appreciated.

## Input Consider the molecule COc1ccc(-c2noc(CSc3nnc(Cc4ccccc4)n3-c3cccc(C)c3)n2)cc1 . Is its survival strictly less than 70%?
## Output condition met

## Input Consider the molecule Cc1ccc(NC(=O)c2cc(S(=O)(=O)NCCC3=CCCCC3)ccc2F)cc1F . Is its survival strictly less than 70%?
## Output condition not met

## Input Consider the molecule CCCCNc1nc(Oc2ccc(=O)n(C)n2)nc(N(C)C)n1 . Is its survival strictly less than 70%?
## Output condition not met

## Input Consider the molecule COc1cccc(NC(=O)CSc2nnc(-c3cccc(OC)c3)o2)c1 . Is its survival strictly less than 70%?
## Output condition not met

## Input Consider the molecule O=c1oc2ccc(Br)cc2cc1-c1nc(-c2ccccc2)no1 . Is its survival strictly less than 70%?
## Output condition met

## Input Consider the molecule CCc1ccc(NC(=O)c2ccc(F)c(S(=O)(=O)NC3CCCCCC3)c2)cc1 . Is its survival strictly less than 70%?
## Output condition met

## Input Consider the molecule COc1ccc(OC)c(NC(=O)c2cc(S(=O)(=O)NCCc3ccc(Cl)cc3)ccc2F)c1 . Is its survival strictly less than 70%?
## Output condition not met

## Input Consider the molecule Cc1cc(OCCCn2c(CCNC(=O)C3CCCCC3)nc3ccccc32)ccc1Cl . Is its survival strictly less than 70%?
## Output condition met

## Input Consider the molecule Cc1ccc(OCCCn2c(CCNC(=O)C3CCCCC3)nc3ccccc32)c(C)c1 . Is its survival strictly less than 70%?
## Output condition not met

## Input Consider the molecule Cc1cc(C)cc(NC(=O)c2cc(S(=O)(=O)NCCC3=CCCCC3)ccc2F)c1 . Is its survival strictly less than 70%?
## Output condition not met

## Input Consider the molecule Cc1ccc(NC(=O)c2cc(S(=O)(=O)NC3CCCCCC3)ccc2F)cc1F . Is its survival strictly less than 70%?
## Output condition not met

## Input Consider the molecule COc1ccc(CCNS(=O)(=O)c2ccc(F)c(C(=O)Nc3ccc(Cl)cc3)c2)cc1OC . Is its survival strictly less than 70%?
## Output condition not met

## Input Consider the molecule Cc1cccc(Nc2nc(-c3ccccc3)c3cc(C)ccc3n2)c1 . Is its survival strictly less than 70%?
## Output condition met

## Input Consider the molecule CCOC(=O)N1CCc2c(sc(NCc3sccc3C)c2C(=O)Nc2cc(Cl)ccc2OC)C1 . Is its survival strictly less than 70%?
## Output condition not met

## Input Consider the molecule Cc1ccc(NC(=O)c2cc(S(=O)(=O)NCCC3=CCCCC3)ccc2F)cc1C . Is its survival strictly less than 70%?
## Output condition met

## Input Consider the molecule Cc1ccc(OCCn2c(CCNC(=O)C3CCCCC3)nc3ccccc32)cc1 . Is its survival strictly less than 70%?
## Output condition met

## Input Consider the molecule Cc1cccc(OCCCn2c(CCNC(=O)C3CCCCC3)nc3ccccc32)c1 . Is its survival strictly less than 70%?
## Output condition met

## Input Consider the molecule COc1cccc(Nc2nc(-c3ccccc3)c3cc(C)ccc3n2)c1 . Is its survival strictly less than 70%?
## Output condition met

## Input Consider the molecule Cc1ccc2nc(NN)nc(-c3ccccc3)c2c1 . Is its survival strictly less than 70%?
## Output condition not met

* * *

Can you tell me survival for the items I'm about to list?
Tested on: Wild type
Assay: S. aureus survival, RN4220 and DeltatarO strains – OD600, teichoic acid synthesis inhibitors, primary screen (AID 463173)
Settings: S. aureus RN4220 wild type/DeltatarO growth, OD600, 18 h, hits give low values, screened at 18.75 µg/mL (by protocol)
Among all 52,000 compounds or so, about 1,700 (3.3%) were called active. For the sample, actives were picked, then their nearest neighbours and some compounds at random.
Give the value, in units of %, as a plain number.

## Input Report survival on Wild type for this entry: CCOc1ccccc1NC(=O)c1c(NC(=O)c2ccccc2C)sc2c1CCC(C)C2 (stereo not given)
## Output 75

## Input Report survival on Wild type for this entry: CC(C)(C)OC(=O)N1CCC(c2c(C(=O)NCc3ccco3)cnn2-c2ccccc2)CC1
## Output 75

## Input Report survival on Wild type for this entry: COCCN(Cc1cc2ccc(C)c(C)c2nc1Cl)C(=O)N1CCOCC1
## Output 104

## Input Report survival on Wild type for this entry: Cc1cccc(CN2CCC(CNC(=O)c3c(C)oc4ncnc(N5CCCCC5)c34)CC2)c1
## Output 98

## Input Report survival on Wild type for this entry: CCN(CC)CCCNC(=O)c1c(C)oc2ncnc(N3CCOCC3)c12
## Output 136

## Input Report survival on Wild type for this entry: Cc1c(Cl)cccc1-n1ncc(C(=O)N2CCN(C)CC2)c1C1CCN(C(=O)OC(C)(C)C)CC1
## Output 87

## Input Report survival on Wild type for this entry: CC(C)(C)C1CCc2c(sc(NC(=O)c3ccccc3F)c2C(=O)N2CCCCC2)C1 (stereo not given)
## Output -3

## Input Report survival on Wild type for this entry: Cc1oc2ncnc(N3CCCCC3)c2c1C(=O)NCC1CCN(Cc2cccc(F)c2)CC1
## Output -6

## Input Report survival on Wild type for this entry: CCCCN(CC)CCCNC(=O)c1c(C)oc2ncnc(N3CCOCC3)c12
## Output 14

## Input Report survival on Wild type for this entry: CNS(=O)(=O)c1cn(CC(=O)N2CCN(c3cc(C)ccc3C)CC2)cc1S(=O)(=O)NC
## Output 83

* * *

Test system: Wild type
Assay: S. aureus survival, RN4220 and DeltatarO strains – OD600, teichoic acid synthesis inhibitors, primary screen (AID 463173)
Conditions: S. aureus RN4220 wild type/DeltatarO growth, OD600, 18 h, hits give low values, screened at 18.75 µg/mL (by protocol)
Among all 52,000 compounds or so, about 1,700 (3.3%) were called active. The sample as a whole holds a higher share of actives than the screen did.
Hi! Could you tag entries with survival below 40% as Satisfied, and those at or above as Not satisfied? Much appreciated.

## Input Consider the compound COc1ccc(NC(=O)COc2ccc(S(=O)(=O)NC3CCCCC3)cc2)cc1OC . Is its survival strictly less than 40%?
## Output Not satisfied

## Input Consider the compound Cc1ccc(NC(=O)CSc2nnc(C)n3c2cc2sccc23)c(C)c1 . Is its survival strictly less than 40%?
## Output Not satisfied

## Input Consider the compound Cc1ccc(-c2nc(S(=O)(=O)c3ccc(C)cc3)c(N3CCN(c4ccccc4)CC3)o2)cc1 . Is its survival strictly less than 40%?
## Output Not satisfied

## Input Consider the compound Cc1ccc(S(=O)(=O)c2nc(-c3cccc(C)c3)oc2N2CCCCC2)cc1 . Is its survival strictly less than 40%?
## Output Satisfied

## Input Consider the compound CCn1cc2nc(SCc3cccc(OC)c3)n(Cc3ccc(Cl)cc3)c(=O)c2n1 . Is its survival strictly less than 40%?
## Output Satisfied

## Input Consider the compound Cc1ccc2oc(=O)n(CCNC(=O)Nc3ccccc3Cl)c2c1 . Is its survival strictly less than 40%?
## Output Not satisfied

## Input Consider the compound CCN(CC)C(=O)CSc1nc2ccccc2c(=O)n1CC . Is its survival strictly less than 40%?
## Output Not satisfied

## Input Consider the compound CCOC(=O)c1c(NC(=O)COc2ccc(C(C)(C)C)cc2)sc2c1CCCC2 . Is its survival strictly less than 40%?
## Output Not satisfied

## Input Consider the compound CCCCCOc1ccc(Cn2c(=O)oc3ccccc32)cc1 . Is its survival strictly less than 40%?
## Output Not satisfied

## Input Consider the compound Cc1ccc(Cl)cc1NC(=O)Nc1nnc(N(C)Cc2ccccc2)s1 . Is its survival strictly less than 40%?
## Output Not satisfied

## Input Consider the compound COc1ccc(-c2noc(-c3ccc(NCCc4ccccc4)c([N+](=O)[O-])c3)n2)cc1 . Is its survival strictly less than 40%?
## Output Not satisfied

## Input Consider the compound Cc1ccc(-c2nc(S(=O)(=O)c3ccc(C)cc3)c(N3CCCCC3)o2)cc1 . Is its survival strictly less than 40%?
## Output Satisfied

## Input Consider the compound Nc1nc2nc(-c3ccc(Cl)cc3)cc(C(F)(F)F)n2n1 . Is its survival strictly less than 40%?
## Output Not satisfied

## Input Consider the compound Cc1ccc2oc(=O)n(Cc3ccccc3Cl)c2c1 . Is its survival strictly less than 40%?
## Output Satisfied

## Input Consider the compound COc1ccc(NC(=O)Cn2c(=O)n(CCCCCC(=O)NCc3ccc4c(c3)OCO4)c(=O)c3sccc32)cc1Cl . Is its survival strictly less than 40%?
## Output Not satisfied

## Input Consider the compound CCOC(=O)c1c(NC(=O)CCCOc2ccc(C(C)(C)C)cc2)sc2c1CCC2 . Is its survival strictly less than 40%?
## Output Satisfied

## Input Consider the compound CC1CCCCN1CC(=O)N1CCN(C(=O)CN2CCCCC2C)CC1 (configuration not stated) . Is its survival strictly less than 40%?
## Output Not satisfied

## Input Consider the compound CCOC(=O)C1CCN(C(=O)c2ccc3c(c2)sc2nc(-c4ccccc4)cn23)CC1 . Is its survival strictly less than 40%?
## Output Not satisfied

## Input Consider the compound COc1cc(Cn2c(=O)oc3ccc(C)cc32)ccc1OCCC(C)C . Is its survival strictly less than 40%?
## Output Satisfied

## Input Consider the compound CCCCc1nc2c(nnn2Cc2ccccc2)c(=O)[nH]1 . Is its survival strictly less than 40%?
## Output Not satisfied

## Input Consider the compound CCOC(=O)c1c(NC(=O)CCCOc2ccc(Cl)cc2)sc2c1CCC2 . Is its survival strictly less than 40%?
## Output Satisfied
